- Test system: Candida albicans
- PROTOCOL TEXT: In vitro minimum inhibitory concentration (MIC) against Candida albicans.
- Format: functional
The following compounds are listed with their measured MIC values.

STRUCTURE SMILES | UNITS OF MEASURE | MIC
C/C=C1\NC(=O)[C@H]([C@@H](C)O)NC(=O)[C@H](CCN)NC(=O)[C@H](CCCCN)NC(=O)[C@H](CC(=O)N[C@@H](Cc2c[nH]cn2)C(=O)OC)NC(=O)[C@@H](CCN)NC(=O)[C@@H](NC(=O)C[C@H](O)CCCCCCCCCCC)COC(=O)[C@H]([C@H](O)CCl)NC(=O)[C@H]([C@H](O)C(=O)O)NC1=O | µg/mL | 0.312
C/C=C1\NC(=O)[C@H]([C@H](C)O)NC(=O)[C@H](CCN)NC(=O)[C@H](CCCCN)NC(=O)[C@H](CC(=O)NCCC(C)C)NC(=O)[C@@H](CCN)NC(=O)[C@@H](NC(=O)C[C@H](O)CCCCCCCCCCC)COC(=O)[C@H]([C@H](O)CCl)NC(=O)[C@H]([C@H](O)C(=O)O)NC1=O | µg/mL | 0.312
C/C=C1\NC(=O)[C@H]([C@H](C)O)NC(=O)[C@H](CCN)NC(=O)[C@H](CCCCN)NC(=O)[C@H](CC(=O)NCCCCCCCN(C)C)NC(=O)[C@@H](CCN)NC(=O)[C@@H](NC(=O)C[C@H](O)CCCCCCCCCCC)COC(=O)[C@H]([C@H](O)CCl)NC(=O)[C@H]([C@H](O)C(=O)O)NC1=O | µg/mL | 10

====

The compounds listed here are annotated with their MIC.
- System: Candida albicans
- PROTOCOL TEXT: In vitro minimum inhibitory concentration (MIC) against Candida albicans.
- Assay type: functional

STRUCTURE SMILES | UNITS OF MEASURE | MIC
C/C=C1\NC(=O)[C@H]([C@H](C)O)NC(=O)[C@H](CCN)NC(=O)[C@H](CCCCN)NC(=O)[C@H](CC(=O)NCCCCCC)NC(=O)[C@@H](CCN)NC(=O)[C@@H](NC(=O)C[C@H](O)CCCCCCCCCCC)COC(=O)[C@H]([C@H](O)CCl)NC(=O)[C@H]([C@H](O)C(=O)O)NC1=O | µg/mL | 5
C/C=C1\NC(=O)[C@H]([C@H](C)O)NC(=O)[C@H](CCN)NC(=O)[C@H](CCCCN)NC(=O)[C@H](CC(=O)NCCCCCCC)NC(=O)[C@@H](CCN)NC(=O)[C@@H](NC(=O)C[C@H](O)CCCCCCCCCCC)COC(=O)[C@H]([C@H](O)CCl)NC(=O)[C@H]([C@H](O)C(=O)O)NC1=O | µg/mL | 20

====

- Test system: Candida albicans
- PROTOCOL TEXT: In vitro minimum inhibitory concentration (MIC) against Candida albicans.
- Format: functional
Positions of bridges follow the written chain, without caps; N, C: chain ends. Non-standard residues stand in square brackets, D forms with d. Residues, ends and D or L forms follow the SMILES beside them. *: point of attachment. Tetradecanoyl(3R-OH) = CCCCCCCCCCC[C@@H](O)CC(=O)*; Asp(3S-OH) = N[C@H](C(=O)O)[C@H](O)C(=O)O; Thr(4-Cl) = N[C@H](C(=O)O)[C@H](O)CCl; aThr = C[C@H](O)[C@H](N)C(=O)O; dDab = NCC[C@@H](N)C(=O)O; NHCH2CH2NMe2 = CN(C)CCN*; Dab = NCC[C@H](N)C(=O)O; Dhb = C/C=C(\N)C(=O)O
MIC reference
METRIC NAME: MIC (µg/mL)

COMPOUND | METRIC NAME | UNITS OF MEASURE | RESULT MODIFIER | ENDPOINT RESULT
C/C=C1\NC(=O)[C@H]([C@H](C)O)NC(=O)[C@H](CCN)NC(=O)[C@H](CCCCN)NC(=O)[C@H](CC(=O)NCCCCC)NC(=O)[C@@H](CCN)NC(=O)[C@@H](NC(=O)C[C@H](O)CCCCCCCCCCC)COC(=O)[C@H]([C@H](O)CCl)NC(=O)[C@H]([C@H](O)C(=O)O)NC1=O | MIC | µg/mL | = | 0.312
C/C=C1\NC(=O)[C@H]([C@@H](C)O)NC(=O)[C@H](CCN)NC(=O)[C@H](CCCCN)NC(=O)[C@H](CC(=O)N[C@@H](Cc2ccccc2)C(=O)OC)NC(=O)[C@@H](CCN)NC(=O)[C@@H](NC(=O)C[C@H](O)CCCCCCCCCCC)COC(=O)[C@H]([C@H](O)CCl)NC(=O)[C@H]([C@H](O)C(=O)O)NC1=O | MIC | µg/mL | = | 1.25
C/C=C1\NC(=O)[C@H]([C@H](C)O)NC(=O)[C@H](CCN)NC(=O)[C@H](CCCCN)NC(=O)[C@H](CC(=O)NCCCN(CC)CC)NC(=O)[C@@H](CCN)NC(=O)[C@@H](NC(=O)C[C@H](O)CCCCCCCCCCC)COC(=O)[C@H]([C@H](O)CCl)NC(=O)[C@H]([C@H](O)C(=O)O)NC1=O | MIC | µg/mL | = | 20
C/C=C1\NC(=O)[C@H]([C@H](C)O)NC(=O)[C@H](CCN)NC(=O)[C@H](CCCCN)NC(=O)[C@H](CC(=O)N(C)C)NC(=O)[C@@H](CCN)NC(=O)[C@@H](NC(=O)C[C@H](O)CCCCCCCCCCC)COC(=O)[C@H]([C@H](O)CCl)NC(=O)[C@H]([C@H](O)C(=O)O)NC1=O | MIC | µg/mL | = | 10
C/C=C1\NC(=O)[C@H]([C@H](C)O)NC(=O)[C@H](CCN)NC(=O)[C@H](CCCCN)NC(=O)[C@H](CC(=O)NCCCCCCCCCC)NC(=O)[C@@H](CCN)NC(=O)[C@@H](NC(=O)C[C@H](O)CCCCCCCCCCC)COC(=O)[C@H]([C@H](O)CCl)NC(=O)[C@H]([C@H](O)C(=O)O)NC1=O | MIC | µg/mL | > | 20
C/C=C1\NC(=O)[C@H]([C@H](C)O)NC(=O)[C@H](CCN)NC(=O)[C@H](CCCCN)NC(=O)[C@H](CC(=O)NCCN(C)C)NC(=O)[C@@H](CCN)NC(=O)[C@@H](NC(=O)C[C@H](O)CCCCCCCCCCC)COC(=O)[C@H]([C@H](O)CCl)NC(=O)[C@H]([C@H](O)C(=O)O)NC1=O ({Tetradecanoyl(3R-OH)}-S[dDab]D(NHCH2CH2NMe2)K[Dab][aThr][Dhb][Asp(3S-OH)][Thr(4-Cl)]; ester 1-C) | MIC | µg/mL | = | 0.156
C/C=C1\NC(=O)[C@H]([C@H](C)O)NC(=O)[C@H](CCN)NC(=O)[C@H](CCCCN)NC(=O)[C@H](CC(=O)N(C)CCN(C)C)NC(=O)[C@@H](CCN)NC(=O)[C@@H](NC(=O)C[C@H](O)CCCCCCCCCCC)COC(=O)[C@H]([C@H](O)CCl)NC(=O)[C@H]([C@H](O)C(=O)O)NC1=O | MIC | µg/mL | = | 5

====

- Tested on: Mus musculus
- PROTOCOL TEXT: Toxicity at a dose of 125 mg/kg in mice; Death
- CONDITION: in vivo
Positions of bridges follow the written chain, without caps; N, C: chain ends. Non-standard residues stand in square brackets, D forms with d. Residues, ends and D or L forms follow the SMILES beside them. *: point of attachment. Tetradecanoyl(3R-OH) = CCCCCCCCCCC[C@@H](O)CC(=O)*; Asp(3S-OH) = N[C@H](C(=O)O)[C@H](O)C(=O)O; Thr(4-Cl) = N[C@H](C(=O)O)[C@H](O)CCl; aThr = C[C@H](O)[C@H](N)C(=O)O; dDab = NCC[C@@H](N)C(=O)O; NHCH2CH2NMe2 = CN(C)CCN*; Dab = NCC[C@H](N)C(=O)O; Dhb = C/C=C(\N)C(=O)O; NHcPr = C1CC1N*
METRIC NAME: Toxicity

COMPOUND | METRIC NAME | ENDPOINT RESULT
C/C=C1\NC(=O)[C@H]([C@H](C)O)NC(=O)[C@H](CCN)NC(=O)[C@H](CCCCN)NC(=O)[C@H](CC(=O)NCCN(C)C)NC(=O)[C@@H](CCN)NC(=O)[C@@H](NC(=O)C[C@H](O)CCCCCCCCCCC)COC(=O)[C@H]([C@H](O)CCl)NC(=O)[C@H]([C@H](O)C(=O)O)NC1=O ({Tetradecanoyl(3R-OH)}-S[dDab]D(NHCH2CH2NMe2)K[Dab][aThr][Dhb][Asp(3S-OH)][Thr(4-Cl)]; ester 1-C) | Toxicity | Death
C/C=C1\NC(=O)[C@H]([C@H](C)O)NC(=O)[C@H](CCN)NC(=O)[C@H](CCCCN)NC(=O)[C@H](CC(=O)NC2CC2)NC(=O)[C@@H](CCN)NC(=O)[C@@H](NC(=O)C[C@H](O)CCCCCCCCCCC)COC(=O)[C@H]([C@H](O)CCl)NC(=O)[C@H]([C@H](O)C(=O)O)NC1=O ({Tetradecanoyl(3R-OH)}-S[dDab]D(NHcPr)K[Dab][aThr][Dhb][Asp(3S-OH)][Thr(4-Cl)]; ester 1-C) | Toxicity | Death
C/C=C1\NC(=O)[C@H]([C@@H](C)O)NC(=O)[C@H](CCN)NC(=O)[C@H](CCCCN)NC(=O)[C@H](CC(=O)N[C@@H](CCCCN)C(=O)OC)NC(=O)[C@@H](CCN)NC(=O)[C@@H](NC(=O)C[C@H](O)CCCCCCCCCCC)COC(=O)[C@H]([C@H](O)CCl)NC(=O)[C@H]([C@H](O)C(=O)O)NC1=O | Toxicity | Death

Data credit: ChEMBL document CHEMBL1134010
